system-under-test: human carbonic anhydrase-2 (Homo sapiens)
recorded-endpoint: IC50

Field IC50 (entry COc1cc(F)ccc1-c1cc(Nc2cc(CS(C)(=N)=O)ccn2)ncc1F (racemic) ) reads > 10 µM

----------
Test system: Caco-2, human colorectal carcinoma cells
test-method-notes: Proliferation assay, Caco-2 (crystal violet)
Format: cell-based
assay-setup: Homo sapiens, Caco-2, 96 h, Caco-2, 4 days; read-out: Inhibition of Caco-2 cell proliferation IC50
Hi all, reminder that labels come from IC50, split as Low = under 40 nM, Medium = from 40 nM up to 90 nM, High = 90 nM and over

## Input Band for the recorded IC50 of COc1cc(F)ccc1-c1cc(Nc2cc(CS(C)(=N)=O)cc(C(F)(F)F)n2)ncc1F (single isomer, unassigned; (+)) [Example 22] ?
## Output Low

## Input Band for COc1cc(CS(C)(=N)=O)cc(Nc2cc(-c3ccc(F)cc3OC)c(F)cn2)n1 (racemic) [Example 6] ?
## Output Low

## Input Band assignment needed for COc1cc(F)ccc1-c1cc(Nc2cc(CS(C)(=N)=O)ccn2)ncc1F (racemic) [Example 1] please.
## Output Medium

## Input GET /class?item= CCOC(=O)N=S(C)(=O)Cc1ccnc(Nc2cc(-c3ccc(F)cc3OC)c(F)cn2)c1 (racemic) [Example 11]
## Output High

## Input For this molecule, which bin applies? CCOc1cc(F)ccc1-c1cc(Nc2cc(CS(C)(=N)=O)cc(F)n2)ncc1F (single isomer, unassigned; (+)) [Example 28]
## Output High

## Input Field: class (IC50) — entry: COc1cc(F)ccc1-c1cc(Nc2cc(CS(C)(=N)=O)c(Br)c(C)n2)ncc1F (racemic) [Example 5]
## Output High

## Input Assign a bin to COc1cc(F)ccc1-c1cc(Nc2cc(CS(C)(=N)=O)cc(F)n2)ncc1F (racemic) [Example 17]
## Output Medium

----------
Item-by-item account of solubility at 24 h
test-method-notes: Equilibrium shake flask solubility assay, thermodynamic solubility in citrate buffer pH 4
Type: physicochemical
assay-setup: citrate buffer, pH 4, aqueous buffer, thermodynamic from solid, citrate buffer pH 4, 24 h, room temperature; read-out: Solubility in aqueous Citrate buffer pH4
Remember to put the unit after the number in your answer.

CCNC(=O)N=S(C)(=O)Cc1ccnc(Nc2cc(-c3ccc(F)cc3OC)c(F)cn2)c1 (racemic) [Example 12]
34 µg/mL
COc1cc(F)ccc1-c1cc(Nc2cc(CS(=N)(=O)CCN)ccn2)ncc1F (racemic) [Example 9]
660 µg/mL
COc1cc(F)ccc1-c1cc(Nc2cc(CS(C)(=N)=O)ccn2)ncc1F (single isomer, unassigned; (-)) [Example 3]
699 µg/mL

Shift focus to the following entry.
Given item COc1cc(F)ccc1-c1cc(Nc2cc(CS(=N)(=O)CCO)ccn2)ncc1F (racemic) [Example 8] , the value recorded as its solubility at 24 h is 730 µg/mL

----------
test-method-notes: Equilibrium shake flask solubility assay, thermodynamic solubility in water pH 6.5
Format: physicochemical
assay-setup: phosphate buffer, pH 6.5, aqueous buffer, thermodynamic from solid, phosphate buffer pH 6.5, 24 h, room temperature
recorded-endpoint: solubility at 24 h
Include the unit after the number when you answer.

COc1cc(F)ccc1-c1cc(Nc2cc(CS(C)(=N)=O)ccn2)ncc1F (single isomer, unassigned; (+)) [Example 2]
25 µg/mL

Given item COc1cc(F)ccc1-c1cc(Nc2cc(CS(C)(=N)=O)ccn2)ncc1F (racemic) [Example 1] , the value recorded as its solubility at 24 h is 13 µg/mL

----------
system-under-test: CDK2/CycE (Homo sapiens, UniProt P24941)
Construct: GST; purchased ProQinase GmbH (Freiburg, Germany); host or cells: insect cells (Sf9)
test-method-notes: CDK2/CycE high ATP kinase assay (TR-FRET, 2 mM ATP)
Assay type: biochemical
assay-setup: Method 2b
Here, each record is paired with measured IC50 data.
A number alone suffices; assume nM.

Below, each entry is followed by its recorded IC50 result.
COc1cc(CS(C)(=N)=O)cc(Nc2cc(-c3ccc(F)cc3OC)c(F)cn2)n1 (racemic)
84
COc1cc(F)ccc1-c1cc(Nc2cc(CS(C)(=N)=O)cc(C(F)(F)F)n2)ncc1F (single isomer, unassigned; (+)) [Example 22]
233
COc1cc(F)ccc1-c1cc(Nc2cc(CS(=N)(=O)CCO)ccn2)ncc1F (racemic)
4190

The compound listed as COc1cc(F)ccc1-c1cc(Nc2cc(CS(=N)(=O)CCN)ccn2)ncc1F (racemic) has a reported IC50 of 4230

COc1cc(F)ccc1-c1cc(Nc2cc(CS(C)(=N)=O)cc(F)n2)ncc1F (racemic) [Example 17] yielded IC50 of 886

Notebook: CCS(=N)(=O)Cc1ccnc(Nc2cc(-c3ccc(F)cc3OC)c(F)cn2)c1 (racemic) , IC50 read as 300

Lab book: IC50 of CCOc1cc(F)ccc1-c1cc(Nc2cc(CS(C)(=N)=O)cc(F)n2)ncc1F (racemic) [Example 26] noted as 1200

Just so you know, measured IC50 for COc1cc(F)ccc1-c1cc(Nc2cc(CS(C)(=N)=O)ccn2)ncc1F (single isomer, unassigned; enantiomer 1) [Example 16] came out at 5150

IC50 for COc1cc(F)ccc1-c1cc(Nc2cc(CS(C)(=N)=O)cc(Cl)n2)ncc1F (racemic) is 630

Form field IC50, entry CCOc1cc(F)ccc1-c1cc(Nc2cc(CS(C)(=N)=O)cc(F)n2)ncc1F (single isomer, unassigned; (+)) [Example 28] : 1170

Looking up COc1cc(F)ccc1-c1cc(Nc2cc(CS(C)(=N)=O)cc(C)n2)ncc1F (racemic) [Example 4] , I found its IC50 recorded as 1010

response.value for COc1cc(F)ccc1-c1cc(Nc2cc(CS(C)(=N)=O)ccn2)ncc1F (racemic) [Example 1] (field: IC50) = 5860

Recorded IC50 (compound COc1cc(F)ccc1-c1cc(Nc2cc(CS(C)(=N)=O)cc(F)n2)ncc1F (single isomer, unassigned; (-)) [Example 20] ): 815

Entry COc1cc(F)ccc1-c1cc(Nc2cc(CS(C)(=N)=O)cc(F)n2)ncc1F (single isomer, unassigned; (+)) [Example 19] — recorded IC50 = 1370

Lab note: measured IC50 of COc1cc(F)ccc1-c1cc(Nc2cc(CS(C)(=O)=NC(C)=O)ccn2)ncc1F (racemic) was 3690

The reported value for COc1cc(F)ccc1-c1cc(Nc2cc(CS(C)(=O)=NC#N)ccn2)ncc1F (single isomer, unassigned) in terms of IC50 is 1420

For reference, reported IC50 for COc1cc(F)ccc1-c1cc(Nc2cc(CS(C)(=N)=O)cc(C)n2)ncc1F (single isomer, unassigned; (-)) [Example 33] stands at 680

Per the records, this compound ( COc1cc(F)ccc1-c1cc(Nc2cc(CS(C)(=N)=O)ccn2)ncc1F (single isomer, unassigned; (-)) [Example 3] ) has IC50 equal to 2490

Looking up COc1cc(F)ccc1-c1cc(Nc2cc(CS(C)(=N)=O)cc(C(F)(F)F)n2)ncc1F (single isomer, unassigned; (-)) [Example 23] , I found its IC50 recorded as 283

----------
Test system: HeLa, human cervical tumour cells
test-method-notes: Proliferation assay, HeLa (crystal violet)
Type: cell-based
assay-setup: 4 days, read-out: Inhibition of HeLa cell proliferation IC50
recorded-endpoint: pIC50
The read-out pIC50 is expressed as -log10 of concentration in moles per litre.

# example entries with known answers
COc1cc(F)ccc1-c1cc(Nc2cc(CS(C)(=N)=O)ccn2)ncc1F (single isomer, unassigned; enantiomer 1) [Example 16]
7.20
COc1cc(F)ccc1-c1cc(Nc2cc(CS(C)(=N)=O)cc(C)n2)ncc1F (single isomer, unassigned; (-)) [Example 33]
7.72
COc1cc(F)ccc1-c1cc(Nc2cc(CS(C)(=O)=NC(=O)C(F)(F)F)cc(C(F)(F)F)n2)ncc1F (single isomer, unassigned; (-)) [Example 25]
7.46

Per the records, this compound ( COc1cc(F)ccc1-c1cc(Nc2cc(CS(C)(=N)=O)ccn2)ncc1F.Cl (single isomer, unassigned; enantiomer 2) [Example 14] ) has pIC50 equal to 7.38

// pIC50 lookup, compound = COc1cc(F)ccc1-c1cc(Nc2cc(CS(C)(=N)=O)ccn2)ncc1F (single isomer, unassigned; (-)) [Example 3] , result: 7.00

----------
test-method-notes: Equilibrium shake flask solubility assay, thermodynamic solubility in citrate buffer pH 4
Assay type: physicochemical
assay-setup: citrate buffer, pH 4, aqueous buffer, thermodynamic from solid, citrate buffer pH 4, 24 h, room temperature; read-out: Solubility in aqueous Citrate buffer pH4
solubility at 24 h values by entry
Respond with a number, then the unit of measure.

COc1cc(F)ccc1-c1cc(Nc2cc(CS(C)(=N)=O)cc(F)n2)ncc1F (racemic)
3 µg/mL

Consider COc1cc(F)ccc1-c1cc(Nc2cc(CS(C)(=N)=O)ccn2)ncc1F.Cl (single isomer, unassigned; enantiomer 2) . Its measured solubility at 24 h is 600 µg/mL

Item: COc1cc(F)ccc1-c1cc(Nc2cc(CS(C)(=N)=O)cc(C(F)(F)F)n2)ncc1F (single isomer, unassigned; (+)) | solubility at 24 h: 52 µg/mL
